test: xn = mol fraction of the nth substance listed, in the solute-free solvent; details: 288.15 K; x2 = 0.3698
measured_endpoint: solubility (g/100 g solution)

Recorded results for 3 compounds are shown here.
compound="CC(C)C(=O)Nc1ccc([N+](=O)[O-])c(C(F)(F)F)c1 + CCO + O" readout_value=3.2
compound="Nc1cc(-c2ccncc2)c[nH]c1=O + CCO + O" readout_value=0.00879
compound="Nc1ncc(Br)nc1Br + CCO + O" readout_value=0.35

I: O=c1cc(CBr)c2ccccc2[nH]1 + CCO + O
II: O=C1C=CC(=O)N1c1ccccc1Br + CCO + O
Identify the entry with the larger solubility (g/100 g solution). Options: I and II Write the label of whichever entry you select.
II

These data points were gathered from the CheMixHub drug solubility set.
